This collection of values is drawn from patent US20150132314A1.

subjectOfTest: T1, human IL-17F homodimer (human, UniProt Q96PD4 31-163)
T1 sequence (looked up): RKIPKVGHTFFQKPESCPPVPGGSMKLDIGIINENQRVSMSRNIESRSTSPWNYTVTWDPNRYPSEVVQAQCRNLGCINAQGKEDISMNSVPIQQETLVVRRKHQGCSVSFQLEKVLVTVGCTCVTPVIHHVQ
protocolDetails: cell-based or functional assay
Examples of binders with documented IC50 (nM), IL-6 secretion by MEF cells stimulated with IL-17F (5 ng/ml) and mTNF-α follow.
measurementName: IC50 (nM), IL-6 secretion by MEF cells stimulated with IL-17F (5 ng/ml) and mTNF-α

INSERT INTO assay_data (binder, datavalue) VALUES
  ('43G6 antibody (antibody, V domains shown) VH: EVQLVESGGGLVQPGGSLRLSCAASGFTFSSYSMNWVRQAPGKGLEWVSYISSGSSTIYYADSVKGRFTISRDNAKNSLYLQMNSLRDEDTAVYYCAREGYVSGTYYNYYYGMDVWGQGTTVTVSS VL: EIVLTQSPATLSLSPGERATLSCRASQSVSSYLAWYQQKPGQAPRLLIYDAPNRATGIPARFSGSGSGTDFTLTISSLEPEDFAVYYCQQRSNWSLTFGGGTKVEIK', '1.1 nM'),
  ('22F8 antibody (antibody, V domains shown) VH: EVQLLESGGGLVQPGGSLRLSCAASGFTFSSYAMNWVRQAPGKGLEWVSTISGRGGSIYYADSVKGRFTISRDNSKNTLYLQMNSLRAEDTAVYYCAKEEATWDFDYWGQGTTVTVSS VL: EIVLTQSPATLSLSPGERATLSCRASQSVSSFLAWFQQKPGQAPRLLIYDASNRATGIPARFSGSGSGTDFTLTISSLEPEDFAVYYCQQRSNWPPTFGQGTKVEIK', '2 nM'),
  ('11C5 antibody (antibody, V domains shown) VH: QVQLVQSGAEVKKPGASVKVSCKASGYTFTIYYLHWVRQAPGQGLEWMGIINPSGGRTNYAQKFQGRVTMTRDPSTNTVYMELSSLTSEDAAVYYCARGEFSSGWLDYWGQGTTVTVSS VL: DIQMTQSPSSVSASVGDRVTITCRASQGISSWLAWYQHKPGKAPKLLIYAASSLQSGVPSRFSGSGSGTDFTLTISSLQPEDFATYYCQQANSFPLTFGGGTKVEIK', '0.4 nM'),
  ('5D3 antibody (antibody, V domains shown) VH: EVQLVESGGGLVQPGRSLRLSCAASGFTFDDYAMHWVRQAPGKGLEWVSGISWNSGSRGYADSVKGRFTISRDNAKNSLYLQMNSLRAEDTALYYCAKDMVYALDVWGQGTTVTVSS VL: EIVLTQSPGTLSLSPGERATLSCRASQSFSGSYLAWYQQKPGQAPRLLIYDTSSRATGIPDRFSGSGSGTDFTLTISRLEPEDFAVYYCQQYGTWTFGQGTKVEIK', '0.5 nM');
